system: SW-620 colon; assay: NCI-60 one-dose screen, 48 h (100 = growth as untreated, 0 = no growth, -100 = all killed); settings: 10 µM unless noted
Compounds without any hit were thinned out: in the full panel of roughly 83,000, 20% have a hit.
OUTCOME MEASURE: growth (%)
Please state the figure in %; there is no need to write the unit.

In the examples that follow, each entry is paired with its recorded growth.
COMPOUND	TARGET SYSTEM	OUTCOME MEASURE	UNIT ABBREV	VALUE REPORTED
Brc1ccc(SSc2ccc(Br)cc2)cc1	SW-620 colon	growth	%	84.2
NN1CCOC(c2ccccc2)C1 (centres undefined)	SW-620 colon	growth	%	98
CCOC(=O)c1c(C)cc(=O)oc1C	SW-620 colon	growth	%	110

Please examine the following record next.
Tell me reported growth for O=C(Cc1ccccc1)c1ccc(O)c(Cl)c1 , tested with SW-620 colon.
22.1

All figures here come from PubChem BioAssay (NCI).
